molecular target: poly(adenosine diphosphate ribose)polymerase (PARP) (Rattus norvegicus, UniProt P27008); construct: was isolated from rat liver according to the article of Shah, G. M; from tissue; host or cells: rat liver; assay: Determination of PARP inhibition, in vitro, on isolated enzyme; assay type: biochemical; conditions: PARP isolated from rat liver; four parallel measurements; read-out: PARP I0.5 (converted)
Sequence (P27008 whole entry): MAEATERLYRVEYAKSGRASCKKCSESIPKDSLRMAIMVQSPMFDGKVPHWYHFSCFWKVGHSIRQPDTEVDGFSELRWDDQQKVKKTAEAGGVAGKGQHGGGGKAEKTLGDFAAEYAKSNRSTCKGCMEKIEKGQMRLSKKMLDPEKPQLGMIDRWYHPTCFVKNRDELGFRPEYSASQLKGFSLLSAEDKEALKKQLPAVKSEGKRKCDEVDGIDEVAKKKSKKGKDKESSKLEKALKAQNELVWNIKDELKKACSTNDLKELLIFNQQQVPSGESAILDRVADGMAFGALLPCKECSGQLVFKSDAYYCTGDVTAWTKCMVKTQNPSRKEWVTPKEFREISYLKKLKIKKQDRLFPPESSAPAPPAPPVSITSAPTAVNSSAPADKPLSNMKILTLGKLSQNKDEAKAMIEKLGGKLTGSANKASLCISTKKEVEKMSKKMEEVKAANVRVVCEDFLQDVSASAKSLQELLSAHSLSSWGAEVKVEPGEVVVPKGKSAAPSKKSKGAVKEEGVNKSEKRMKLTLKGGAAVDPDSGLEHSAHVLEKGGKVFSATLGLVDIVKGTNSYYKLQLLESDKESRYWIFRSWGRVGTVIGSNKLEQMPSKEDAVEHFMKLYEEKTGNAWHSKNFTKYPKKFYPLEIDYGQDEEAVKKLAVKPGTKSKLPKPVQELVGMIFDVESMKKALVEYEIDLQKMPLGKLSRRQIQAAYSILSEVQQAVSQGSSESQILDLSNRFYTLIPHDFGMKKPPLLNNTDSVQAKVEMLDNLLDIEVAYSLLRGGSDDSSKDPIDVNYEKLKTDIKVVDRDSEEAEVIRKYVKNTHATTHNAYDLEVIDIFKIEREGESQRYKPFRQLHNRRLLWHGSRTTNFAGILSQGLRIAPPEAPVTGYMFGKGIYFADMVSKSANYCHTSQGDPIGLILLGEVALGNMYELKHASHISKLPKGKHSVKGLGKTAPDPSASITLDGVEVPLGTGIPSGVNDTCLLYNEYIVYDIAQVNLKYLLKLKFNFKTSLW
Structures can show the parent of a compound that is named as a salt.
Quick reference for IC50 among some molecules
The figure you give is taken to be in µM; do not add the unit.

Use the examples below as a reference point.
O=c1onc(C=Cc2ccccc2)n1CC(O)CN1CCCC1 (stereo not drawn) ... 25.4
O=c1onc(C=Cc2ccccc2)n1CC(O)CN1CCCCCC1 (stereo not drawn) [Example 4, hydrochloride] ... 40.8

Return reported IC50; argument: ON=C(C=Cc1ccccc1)NCC(O)CN1CCOCC1 (stereo not drawn)
65.5

Reference for the values: patent US7151175B2
